test system: Drosophila melanogaster bursicon receptor LGR2 (rickets); assay: bursicon receptor inhibitors, cAMP readout – cell-based, HEK293 transfected, TR-FRET cAMP, dry powder, orthogonal assay for LGR2 antagonist project, dose response (AID 977609); settings: bursicon-stimulated cAMP, Lance TR-FRET, at 50 µM (top of the series)
inhibition of cAMP overview
VALUE_TYPE: inhibition of cAMP (%)

GIVEN_SMILES	REPORTED
C[C@@H]1CN([C@@H](C)CO)C(=O)c2cc(NC(=O)C3CCCCC3)ccc2O[C@@H](C)CCCCO[C@@H]1CN(C)C(=O)Nc1cccc2ccccc12	10.1
C[C@@H]1CCCCO[C@@H](CN(C)C(=O)Nc2cccc3ccccc23)[C@H](C)CN([C@H](C)CO)C(=O)c2cc(NC(=O)C3CCCCC3)ccc2O1	-5.85
C[C@@H]1CCCCO[C@H](CN(C)C(=O)Nc2cccc3ccccc23)[C@H](C)CN([C@@H](C)CO)C(=O)c2cc(NC(=O)C3CCCCC3)ccc2O1	16
CC(C)(C)c1ccc(-c2nc(-c3ccncc3)no2)cc1	9.18
C[C@@H]1CCCCO[C@@H](CN(C)C(=O)Nc2cccc3ccccc23)[C@@H](C)CN([C@H](C)CO)C(=O)c2cc(NC(=O)C3CCCCC3)ccc2O1	-2.89
COc1ccc(S(=O)(=O)N(C)C[C@@H]2OCCCC[C@H](C)Oc3ccc(NS(=O)(=O)c4ccc(Cl)cc4)cc3C(=O)N([C@@H](C)CO)C[C@@H]2C)cc1	6.28

* * *

system: Drosophila melanogaster bursicon receptor LGR2 (rickets); experiment: bursicon receptor inhibitors, cAMP readout – cell-based, HEK293 transfected, TR-FRET cAMP, dry powder, orthogonal assay for LGR2 antagonist project, dose response (AID 977609); details: bursicon-stimulated cAMP, Lance TR-FRET
Active and inactive are the calls of the source.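 The calls were made as follows: active = a rise in signal, meaning less cAMP, whose fitted curve reaches 40% at or below the top valid tested dose; inconclusive = flat fit between 30% and 70%, or a poor fit; inactive = the rest.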
Classes used: active, inactive

GIVEN_SMILES	MEASURED_ON	GROUP_LABEL
C[C@H](CO)N1C[C@H](C)[C@H](CN(C)C(=O)Nc2ccccc2)OCCCC[C@H](C)Oc2ccc(NC(=O)CCC(F)(F)F)cc2C1=O	Drosophila melanogaster bursicon receptor LGR2 (rickets)	active
C[C@H]1CCCCO[C@@H](CN(C)C(=O)Nc2ccccc2)[C@@H](C)CN([C@@H](C)CO)C(=O)c2cc(NC(=O)NC3CCCCC3)ccc2O1	Drosophila melanogaster bursicon receptor LGR2 (rickets)	active
C[C@H](CO)N1C[C@H](C)[C@H](CN(C)C(=O)Nc2cccc3ccccc23)OCCCC[C@H](C)Oc2ccc(NC(=O)NC3CCCCC3)cc2C1=O	Drosophila melanogaster bursicon receptor LGR2 (rickets)	active
C[C@@H]1CN([C@H](C)CO)C(=O)c2cc(NC(=O)C3CCCCC3)ccc2O[C@@H](C)CCCCO[C@H]1CN(C)C(=O)Nc1cccc2ccccc12	Drosophila melanogaster bursicon receptor LGR2 (rickets)	inactive
COc1ccc(S(=O)(=O)N(C)C[C@@H]2OCCCC[C@H](C)Oc3ccc(NS(=O)(=O)c4ccc(F)cc4)cc3C(=O)N([C@@H](C)CO)C[C@@H]2C)cc1	Drosophila melanogaster bursicon receptor LGR2 (rickets)	inactive
C[C@H]1CCCCO[C@@H](CN(C)C(=O)Nc2ccc(C(F)(F)F)cc2)[C@@H](C)CN([C@@H](C)CO)C(=O)c2cc(NC(=O)CCC(F)(F)F)ccc2O1	Drosophila melanogaster bursicon receptor LGR2 (rickets)	active
C[C@H](CO)N1C[C@H](C)[C@H](CN(C)C(=O)Nc2ccc(F)cc2)OCCCC[C@H](C)Oc2ccc(NC(=O)Nc3ccccc3)cc2C1=O	Drosophila melanogaster bursicon receptor LGR2 (rickets)	active
C[C@H](CO)N1C[C@H](C)[C@H](CN(C)C(=O)Nc2ccc3c(c2)OCO3)OCCCC[C@H](C)Oc2ccc(NC(=O)C3CCCCC3)cc2C1=O	Drosophila melanogaster bursicon receptor LGR2 (rickets)	active
C[C@H]1CCCCO[C@@H](CN(C)S(=O)(=O)c2ccc(Cl)cc2)[C@@H](C)CN([C@@H](C)CO)C(=O)c2cc(NC(=O)NC3CCCCC3)ccc2O1	Drosophila melanogaster bursicon receptor LGR2 (rickets)	inactive
C[C@H](CO)N1C[C@H](C)[C@H](CN(C)C(=O)Nc2ccccc2F)OCCCC[C@H](C)Oc2ccc(NC(=O)C3CCCCC3)cc2C1=O	Drosophila melanogaster bursicon receptor LGR2 (rickets)	active

* * *

test system: Drosophila melanogaster bursicon receptor LGR2 (rickets); experiment: bursicon receptor inhibitors, cAMP readout – cell-based, HEK293 transfected, TR-FRET cAMP, dry powder, orthogonal assay for LGR2 antagonist project, dose response (AID 977609); conditions: bursicon-stimulated cAMP, Lance TR-FRET
Activity calls are given as the source filed them.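 Rule for the calls: active = a rise in signal, meaning less cAMP, whose fitted curve reaches 40% at or below the top valid tested dose; inconclusive = flat fit between 30% and 70%, or a poor fit; inactive = the rest.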
Outcome codes: 1 (active), 0 (inactive)

GIVEN_SMILES	GROUP_LABEL
C[C@@H]1CCCCO[C@@H](CN(C)C(=O)Nc2cccc3ccccc23)[C@@H](C)CN([C@@H](C)CO)C(=O)c2cc(NC(=O)C3CCCCC3)ccc2O1	0
C[C@H](CO)N1C[C@H](C)[C@H](CN(C)C(=O)Nc2ccc(F)cc2)OCCCC[C@H](C)Oc2ccc(NC(=O)C3CCC3)cc2C1=O	1
C[C@H](CO)N1C[C@H](C)[C@H](CN(C)C(=O)Nc2ccccc2)OCCCC[C@H](C)Oc2ccc(NC(=O)Nc3ccc4c(c3)OCO4)cc2C1=O	1
C[C@@H]1CCCCO[C@H](CN(C)C(=O)Nc2cccc3ccccc23)[C@H](C)CN([C@H](C)CO)C(=O)c2cc(NC(=O)C3CCCCC3)ccc2O1	0
C[C@H](CO)N1C[C@H](C)[C@H](CN(C)C(=O)Nc2cccc(F)c2)OCCCC[C@H](C)Oc2ccc(NC(=O)C3CCCCC3)cc2C1=O	1
CC(=O)Nc1ccc2c(c1)C(=O)N([C@H](C)CO)C[C@H](C)[C@H](CN(C)C(=O)Nc1ccc(F)cc1)OCCCC[C@H](C)O2	0

* * *

tested on: Drosophila melanogaster bursicon receptor LGR2 (rickets); test: bursicon receptor inhibitors, cAMP readout – cell-based, HEK293 transfected, TR-FRET cAMP, dry powder, orthogonal assay for LGR2 antagonist project, dose response (AID 977609); details: bursicon-stimulated cAMP, Lance TR-FRET
Calls of active or inactive are those of the source.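 Rule for the calls: active = a rise in signal, meaning less cAMP, whose fitted curve reaches 40% at or below the top valid tested dose; inconclusive = flat fit between 30% and 70%, or a poor fit; inactive = the rest.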
Classes used: true (1) = active, false (0) = inactive

GIVEN_SMILES	MEASURED_ON	GROUP_LABEL
COc1ccc(NC(=O)N(C)C[C@@H]2OCCCC[C@H](C)Oc3ccc(NC(=O)C4CCCCC4)cc3C(=O)N([C@H](C)CO)C[C@@H]2C)cc1	Drosophila melanogaster bursicon receptor LGR2 (rickets)	true (1)
C[C@H](CO)N1C[C@H](C)[C@H](CN(C)C(=O)Nc2ccc(F)cc2)OCCCC[C@H](C)Oc2ccc(NC(=O)C3CCCCC3)cc2C1=O	Drosophila melanogaster bursicon receptor LGR2 (rickets)	true (1)
C[C@H](CO)N1C[C@H](C)[C@H](CN(C)C(=O)Nc2cccc3ccccc23)OCCCC[C@H](C)Oc2ccc(NC(=O)C3CCCCC3)cc2C1=O	Drosophila melanogaster bursicon receptor LGR2 (rickets)	true (1)
C[C@H](CO)N1C[C@H](C)[C@H](CN(C)C(=O)Nc2ccc(C(F)(F)F)cc2)OCCCC[C@H](C)Oc2ccc(NC(=O)CCC(F)(F)F)cc2C1=O	Drosophila melanogaster bursicon receptor LGR2 (rickets)	true (1)
COc1ccc(NC(=O)N(C)C[C@@H]2OCCCC[C@H](C)Oc3ccc(NC(=O)NC4CCCCC4)cc3C(=O)N([C@H](C)CO)C[C@@H]2C)cc1	Drosophila melanogaster bursicon receptor LGR2 (rickets)	true (1)
C[C@H](CO)N1C[C@H](C)[C@H](CN(C)C(=O)Nc2ccc(C(F)(F)F)cc2)OCCCC[C@H](C)Oc2ccc(NC(=O)NC3CCCCC3)cc2C1=O	Drosophila melanogaster bursicon receptor LGR2 (rickets)	true (1)
C[C@@H]1CCCCO[C@H](CN(C)C(=O)Nc2cccc3ccccc23)[C@@H](C)CN([C@@H](C)CO)C(=O)c2cc(NC(=O)C3CCCCC3)ccc2O1	Drosophila melanogaster bursicon receptor LGR2 (rickets)	false (0)
C[C@H](CO)N1C[C@H](C)[C@H](CN(C)C(=O)Nc2ccccc2)OCCCC[C@H](C)Oc2ccc(NC(=O)NC3CCCCC3)cc2C1=O	Drosophila melanogaster bursicon receptor LGR2 (rickets)	true (1)
C[C@H](CO)N1C[C@H](C)[C@H](CN(C)C(=O)Nc2ccc(F)cc2)OCCCC[C@H](C)Oc2ccc(NC(=O)Nc3ccc(F)cc3)cc2C1=O	Drosophila melanogaster bursicon receptor LGR2 (rickets)	true (1)
C[C@@H]1CCCCO[C@@H](CN(C)C(=O)Nc2cccc3ccccc23)[C@H](C)CN([C@@H](C)CO)C(=O)c2cc(NC(=O)C3CCCCC3)ccc2O1	Drosophila melanogaster bursicon receptor LGR2 (rickets)	false (0)
C[C@H](CO)N1C[C@H](C)[C@H](CN(C)C(=O)Nc2ccc(F)cc2)OCCCC[C@H](C)Oc2ccc(NC(=O)C3CCCCCC3)cc2C1=O	Drosophila melanogaster bursicon receptor LGR2 (rickets)	true (1)
C[C@H](CO)N1C[C@H](C)[C@H](CN(C)C(=O)Nc2cccc3ccccc23)OCCCC[C@H](C)Oc2ccc(NC(=O)CCC(F)(F)F)cc2C1=O	Drosophila melanogaster bursicon receptor LGR2 (rickets)	true (1)
C[C@H](CO)N1C[C@H](C)[C@H](CN(C)C(=O)Nc2ccc(F)cc2)OCCCC[C@H](C)Oc2ccc(NC(=O)C3CC3)cc2C1=O	Drosophila melanogaster bursicon receptor LGR2 (rickets)	true (1)
Cc1ccc(NC(=O)N(C)C[C@@H]2OCCCC[C@H](C)Oc3ccc(NC(=O)C4CCCCC4)cc3C(=O)N([C@H](C)CO)C[C@@H]2C)cc1	Drosophila melanogaster bursicon receptor LGR2 (rickets)	true (1)
C[C@H](CO)N1C[C@H](C)[C@H](CN(C)C(=O)Nc2ccc3c(c2)OCO3)OCCCC[C@H](C)Oc2ccc(NC(=O)NC3CCCCC3)cc2C1=O	Drosophila melanogaster bursicon receptor LGR2 (rickets)	true (1)
C[C@H](CO)N1C[C@H](C)[C@H](CN(C)C(=O)Nc2ccccc2)OCCCC[C@H](C)Oc2ccc(NC(=O)Nc3ccccc3)cc2C1=O	Drosophila melanogaster bursicon receptor LGR2 (rickets)	true (1)
C[C@H](CO)N1C[C@H](C)[C@H](CN(C)C(=O)Nc2cccc3ccccc23)OCCCC[C@H](C)Oc2ccc(NC(=O)c3ccccc3)cc2C1=O	Drosophila melanogaster bursicon receptor LGR2 (rickets)	true (1)
C[C@H]1CCCCO[C@@H](CN(C)C(=O)Nc2cccc3ccccc23)[C@@H](C)CN([C@@H](C)CO)C(=O)c2cc(NC(=O)C3CCCCC3)ccc2O1	Drosophila melanogaster bursicon receptor LGR2 (rickets)	true (1)
C[C@H]1CCCCO[C@H](CN(C)C(=O)Nc2cccc3ccccc23)[C@@H](C)CN([C@@H](C)CO)C(=O)c2cc(NC(=O)C3CCCCC3)ccc2O1	Drosophila melanogaster bursicon receptor LGR2 (rickets)	false (0)
C[C@H]1CCCCO[C@@H](CN(C)C(=O)Nc2ccc3c(c2)OCO3)[C@@H](C)CN([C@@H](C)CO)C(=O)c2cc(NC(=O)NC3CCCCC3)ccc2O1	Drosophila melanogaster bursicon receptor LGR2 (rickets)	true (1)
C[C@@H]1CCCCO[C@H](CN(C)C(=O)Nc2cccc3ccccc23)[C@@H](C)CN([C@H](C)CO)C(=O)c2cc(NC(=O)C3CCCCC3)ccc2O1	Drosophila melanogaster bursicon receptor LGR2 (rickets)	false (0)
C[C@H](CO)N1C[C@H](C)[C@H](CN(C)C(=O)Nc2ccc(Cl)cc2)OCCCC[C@H](C)Oc2ccc(NC(=O)C3CCCCC3)cc2C1=O	Drosophila melanogaster bursicon receptor LGR2 (rickets)	true (1)
C[C@@H]1CN([C@H](C)CO)C(=O)c2cc(NC(=O)C3CCCCC3)ccc2O[C@@H](C)CCCCO[C@@H]1CN(C)C(=O)Nc1cccc2ccccc12	Drosophila melanogaster bursicon receptor LGR2 (rickets)	false (0)
C[C@H](CO)N1C[C@H](C)[C@H](CN(C)C(=O)Nc2ccc(F)cc2)OCCCC[C@H](C)Oc2ccc(NC(=O)C3CCCC3)cc2C1=O	Drosophila melanogaster bursicon receptor LGR2 (rickets)	true (1)
C[C@H](CO)N1C[C@H](C)[C@H](CN(C)C(=O)Nc2ccc(F)cc2)OCCCC[C@H](C)Oc2ccc(NC(=O)NC3CCCCC3)cc2C1=O	Drosophila melanogaster bursicon receptor LGR2 (rickets)	true (1)
